// values below are reported Percent Effect
tested-on: Aspartate--tRNA(Asp/Asn) ligase (Mycobacterium tuberculosis (strain ATCC 25618 / H37Rv))
measurement-notes: Assay for Asp RNA synthetase-1 from Mycobacterium tuberculosis
Format: functional
Parameters: scale not given: in the data most compounds retested in dose-response had high values
recorded-conditions: 30 µM
Respond with the bare value in %.

compound | tested-on | Percent Effect (%)
CCc1nccn1C1CCCN(C(=O)CCCNc2ncccn2)C1 (stereo unspecified) | Aspartate--tRNA(Asp/Asn) ligase (Mycobacterium tuberculosis (strain ATCC 25618 / H37Rv)) | -4.79
CN(Cc1cn2c(n1)CN(C(=O)CC1CC1)CC2)Cc1ccco1 | Aspartate--tRNA(Asp/Asn) ligase (Mycobacterium tuberculosis (strain ATCC 25618 / H37Rv)) | -0.868

Summary for this compound, CNc1cc2c(nn1)CCN(C(=O)c1cc(F)cc(F)c1)C2 : Percent Effect is -0.49

The recorded Percent Effect for Cc1cnn(CC2CCCCN2CCCS(N)(=O)=O)c1 (stereo unspecified) is -8.36
